Where do these numbers come from? They come from patent US5288709A.

List of MIC values.
Tested on: Micrococcus luteus ATCC 4698
Test: In-vitro antimicrobial activity primary screen (agar dilution MIC)
Assay type: cell-based
Conditions: Micrococcus luteus, ATCC4698, 24 h, BHI agar, 20-24 h
Only the number, expressed in µg/mL, is required.

Known MIC results, listed for orientation:
CC[C@H]1OC(=O)[C@H](C)[C@@H](O[C@H]2C[C@@](C)(OC)[C@H](N=CN(C)C)[C@H](C)O2)[C@H](C)[C@@H](O[C@@H]2O[C@H](C)C[C@H](N(C)C)[C@H]2O)[C@](C)(O)C[C@@H](C)[C@@H]2O[C@@]1(C)C(=O)[C@H]2C: 0.2
CC[C@H]1OC(=O)[C@H](C)[C@@H](O[C@H]2C[C@@](C)(OC)[C@@H](O)[C@H](C)O2)[C@H](C)[C@@H](O[C@@H]2O[C@H](C)C[C@H](N(C)C)[C@H]2O)[C@](C)(OC)C[C@@H](C)[C@@H]2O[C@@]1(C)C(=O)[C@H]2C [Example 28B]: 0.1
CC[C@H]1OC(=O)[C@H](C)[C@@H](O[C@H]2C[C@@](C)(OC)[C@@H](O)[C@H](C)O2)[C@H](C)[C@@H](O[C@@H]2O[C@H](C)C[C@H](N(C)C)[C@H]2O)[C@](C)(OC)C[C@@H](C)[C@@H]2O[C@@]1(C)[C@@H](O)[C@H]2C [Example 28A]: 0.1

Next up:
Documented MIC of CC[C@H]1OC(=O)[C@H](C)[C@@H](O[C@H]2C[C@@](C)(OC)[C@@H](O)[C@H](C)O2)[C@H](C)[C@@H](O[C@@H]2O[C@H](C)C[C@H](N(C)C)[C@H]2O)[C@](C)(O)C[C@@H](C)C(=O)[C@H](C)[C@@H](O)[C@]1(C)O [Std, Erythromycin A, reference compound] : 0.1
